The following molecules are shown together with reported pIC50 values.
Tested on: U87MG pLVX-IDH2 R140Q-neo cells
PROCEDURE TEXT: U87MG pLVX-IDH2 R140Q-neo cell based assay, 2-HG in media by LC-MS at 48 hours
CONDITIONS: Homo sapiens, U-87 MG
pIC50: −log10 of the molar value.

CC(C)Nc1nc(Nc2cncc(Cl)c2)nc(-c2ccccc2)n1	> 7.00

API: the following record is the query input.
### Prompt pIC50 for `CC(C)Nc1nc(Nc2cccc(F)c2)nc(-c2ccccc2)n1` ?
### Response > 7.00

---

MEASUREMENT TARGET: IDH2 R140Q (Homo sapiens, UniProt P48735, R140Q)
PROCEDURE TEXT: IDH2 R140Q enzymatic assay (cofactor depletion, similar format)
Type: biochemical
CONDITIONS: read-out: Enz R140Q
pIC50: −log10 of the molar value.
MEASURED ENDPOINT: pIC50

COc1ccccc1-c1nc(Nc2ccccc2)nc(NC(C)C)n1	> 7.00
FC(F)(F)c1cc(Nc2nc(NC3COC3)nc(-c3cccc(C(F)(F)F)n3)n2)ccn1	6.00 to 7.00
COc1ccc(-c2nc(Nc3ccccc3)nc(NC(C)C)n2)cc1	6.00 to 7.00

### Prompt pIC50 for `c1ccc(-c2nc(Nc3ccncc3)nc(NC3CCCCC3)n2)cc1` ?
### Response < 5.00

### Prompt Another compound to check: `O=C(Nc1nc(Nc2ccccc2)nc(-c2ccccc2)n1)c1ccc[nH]1`
### Response 6.00 to 7.00

### Prompt Another compound to check: `c1ccc(-c2nc(Nc3ccncc3)nc(NC3COC3)n2)cc1`
### Response 6.00 to 7.00

### Prompt Another compound to check: `CC(C)COC(=O)Nc1nc(Nc2ccccc2)nc(-c2ccccc2)n1`
### Response > 7.00

### Prompt Another compound to check: `CC(C)Nc1nc(Nc2cccc(F)c2)nc(-c2c(F)cccc2F)n1`
### Response > 7.00

### Prompt Another compound to check: `CC(F)(F)c1cccc(-c2nc(NCC3CC3)nc(Nc3cc(F)cc(S(C)(=O)=O)c3)n2)n1`
### Response 6.00 to 7.00

### Prompt Another compound to check: `CC(C)(C)CNc1nc(Nc2ccc(F)nc2)nc(-c2ccccn2)n1`
### Response 6.00 to 7.00

### Prompt Another compound to check: `c1ccc(-c2nc(Nc3ccncc3)nc(NC3CCOCC3)n2)cc1`
### Response 5.00 to 6.00

### Prompt Another compound to check: FC(F)(F)c1cc(Nc2nc(NC3C4COCC43)nc(-c3cccc(C(F)(F)F)n3)n2)ccn1 (stereo not drawn)
### Response 6.00 to 7.00

### Prompt Another compound to check: `CC(C)Nc1nc(Nc2cccc(S(C)(=O)=O)c2)nc(-c2c(F)cccc2F)n1`
### Response 6.00 to 7.00

---

The following compounds are shown together with reported IC50 values.
MEASUREMENT TARGET: IDH2 R140Q (Homo sapiens, UniProt P48735, R140Q)
Sequence (P48735 40-452 R140Q): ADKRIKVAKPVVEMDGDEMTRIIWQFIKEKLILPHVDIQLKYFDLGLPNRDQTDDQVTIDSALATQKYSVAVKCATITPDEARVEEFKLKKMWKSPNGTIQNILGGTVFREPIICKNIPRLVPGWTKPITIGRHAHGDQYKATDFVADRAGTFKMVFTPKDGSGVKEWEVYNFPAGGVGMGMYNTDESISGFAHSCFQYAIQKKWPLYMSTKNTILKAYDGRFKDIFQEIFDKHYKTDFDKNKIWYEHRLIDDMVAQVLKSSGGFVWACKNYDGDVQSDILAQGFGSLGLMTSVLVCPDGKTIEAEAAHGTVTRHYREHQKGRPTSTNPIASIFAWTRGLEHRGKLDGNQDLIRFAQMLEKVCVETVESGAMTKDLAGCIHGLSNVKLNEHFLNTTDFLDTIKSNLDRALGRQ
PROCEDURE TEXT: IDH2 R140Q enzymatic assay (cofactor depletion, similar format)
Type: biochemical
CONDITIONS: read-out: Enz R140Q

N#CC1(c2cc(Nc3nc(NCC4CC4)nc(-c4cccc(C(F)(F)F)n4)n3)ccn2)CC1 [Compound 617]	100 to 1000 nM

### Prompt IC50 for CC(C)(CO)CNc1nc(Nc2ccncc2)nc(-c2ccccc2)n1 [Compound 259] ?
### Response 100 to 1000 nM

### Prompt Another compound to check: CC(C)Nc1nc(Nc2cncc(F)c2)nc(-c2c(F)cccc2F)n1 [Compound 474]
### Response 100 to 1000 nM

### Prompt Another compound to check: CC(C)(O)CNc1nc(Nc2cc(F)cc(F)c2)nc(-c2cccc(N)n2)n1 [Compound 691]
### Response 100 to 1000 nM

### Prompt Another compound to check: CC(C)Nc1nc(Nc2cccc(F)c2)nc(-c2ccccc2)n1 [Compound 178]
### Response < 100 nM

### Prompt Another compound to check: CC(C)Nc1cc(Nc2nc(NC(C)C)nc(-c3ccccc3)n2)ccn1 [Compound 301]
### Response 100 to 1000 nM

### Prompt Another compound to check: Fc1cncc(Nc2nc(NC3C4COCC43)nc(-c3cccc(Cl)n3)n2)c1 (stereo not drawn) [Compound 511]
### Response 100 to 1000 nM

### Prompt Another compound to check: CC(C)Nc1nc(Nc2cccc(F)c2)nc(-c2nc(C(F)(F)F)cs2)n1 [Compound 475]
### Response < 100 nM

### Prompt Another compound to check: CC(C)(C)Nc1nc(Nc2ccnc(C(F)(F)F)c2)nc(-c2cccc(C(F)(F)F)n2)n1 [Compound 602]
### Response 100 to 1000 nM

### Prompt Another compound to check: CC(C)Nc1nc(Nc2cncc(C(F)(F)F)c2)nc(-c2ccccc2)n1 [Compound 329]
### Response < 100 nM

### Prompt Another compound to check: N#CC1(Nc2nc(Nc3ccncc3)nc(-c3ccccc3)n2)CC1 [Compound 285]
### Response 1000 to 10000 nM
